B1: wt-peptide PTTIYY (non-biotinylated hexapeptide) / His-AGR2 WT (mature AGR2, amino acids 21-175, N-terminal 6xHis tag; plasmid pmAGR2) [human] (parent complex)
chain 1: PTTIYY
chain 2: RDTTVKPGAKKDTKDSRPKLPQTLSRGWGDQLIWTQTYEEALYKSKTSSKPLMIIHHLDECPHSQALKKVFAENKEIQKLAEQFVLLNLVYETTDKHLSPDGQYVPRIMFVDPSLTVRADITGRYSNRLYAYEPADTALLLDNMKKALKLLKTEL

variants of: B1; assay: competition ELISA (AGR2 binding to immobilised biotinylated peptide A4 with free competitor peptide); 1 μg AGR2; 100 ng competitor peptide; RLU is AGR2 bound to peptide A4, so lower RLU = stronger competitor binding; DMSO (no competitor) est. 79; read off a plot
value-type: response

mutation-descriptor: chain 1 I4L
experimental-result: ~44 RLU
//
mutation-descriptor: chain 1 I4A
experimental-result: ~83 RLU
//
mutation-descriptor: chain 1 P1A
experimental-result: ~6 RLU
//
mutation-descriptor: chain 1 T3S
experimental-result: ~7 RLU
//
mutation-descriptor: chain 1 Y5W
experimental-result: ~20 RLU
//
mutation-descriptor: chain 1 T3V
experimental-result: ~35 RLU
//
mutation-descriptor: chain 1 Y5F
experimental-result: ~40 RLU
//
mutation-descriptor: chain 1 Y5A
experimental-result: ~84 RLU
//
mutation-descriptor: chain 1 T3L
experimental-result: ~66 RLU
//
mutation-descriptor: chain 1 Y6F
experimental-result: ~25 RLU
//
mutation-descriptor: chain 1 P1L
experimental-result: ~15 RLU
